# Test system: T. brucei rhodesiense STIB 900
# ASSAY_SUMMARY: Antitrypanosomal assay T. brucei rhodesiense (resazurin viability)
# Format: cell-based, Trypanosoma brucei rhodesiense
# CONDITION_NOTES: Trypanosoma brucei, 72 h, read-out: IC50 T. brucei rhodesiense STIB 900
pIC50: −log10 of the molar value.

- COMPOUND: "Nc1nc(N)nc(Nc2ccc([As]3SCC(CO)S3)cc2)n1 (stereo not shown) [Melarsoprol, reference compound]"
  TARGET_DESC: "T. brucei rhodesiense STIB 900"
  pIC50: 7.89

---

# Tested on: Rat Myoblast L6 Cells
# ASSAY_SUMMARY: Cytotoxicity assay with L6 cells (resazurin viability)
# Format: cell-based
# CONDITION_NOTES: Rattus norvegicus, L6; cytotoxicity; read-out: IC50 rat skeletal myoblasts

- STRUCTURE_STRING: "CC(C)=CCC/C(C)=C/CC/C(C)=C/Cc1c(C)[nH]c2ccccc2c1=O"
  IC50 (µM): 131

Source: paper PMC9919615
